# Tested on: monoclonal antibody MV-001
# method.notes: In vitro binding assay (ELISA), BSA-coupled peptides, parental antibody MV-001
# Design: species or system C57/B16 mice
# conditions.used: Table 1C; peptide-BSA on plate, compared to original epitope
measurement.name: Binding Capacity

| substance | system.under.test | value.measured |
| --- | --- | --- |
| YEFRHAQC [p4748] | monoclonal antibody MV-001 | 3 (strong binding :>20000) |
| SPNQFRHC [p4707] | monoclonal antibody MV-001 | 3 (strong binding :>20000) |
| AEFMHSVC [p4739] | monoclonal antibody MV-001 | 2 (medium binding :4000-20000) |
| SHFRHGC [p4389] | monoclonal antibody MV-001 | 2 (medium binding :4000-20000) |
| ATPLFRHC [p4723] | monoclonal antibody MV-001 | 3 (strong binding :>20000) |

Input: Look up and report Binding Capacity, with monoclonal antibody MV-001 as system, for SQYFPRPC [p4729]
Output: 2 (medium binding :4000-20000)

Input: Provide Binding Capacity, system monoclonal antibody MV-001, entry LMFRHNC [p4386]
Output: 3 (strong binding :>20000)

Input: Enter recorded Binding Capacity with monoclonal antibody MV-001 for VELRHSRC [p4704] here.
Output: 2 (medium binding :4000-20000)

Input: Report value: Binding Capacity, system: monoclonal antibody MV-001, substance: EEFKYSC [p4393]
Output: 2 (medium binding :4000-20000)

Input: Look up monoclonal antibody MV-001 data: Binding Capacity of ELFKHHLC [p4714] , then report it.
Output: 3 (strong binding :>20000)
